Source of measurements: PubChem BioAssay (NCI)

Test system: OVCAR-3 ovarian
Method Summary: NCI-60 one-dose screen, 48 h (100 = growth as untreated, 0 = no growth, -100 = all killed)
Condition: 10 µM
The panel holds about 83,000 compounds, 20% with a hit somewhere; the sample as a whole holds those more often.
Readout Name: growth (%)
Numbers only here, please. The scale is %.

Below are worked cases with known answers.
O=C(Nc1ccc(Cl)c(Cl)c1)Nc1c(Oc2ccc(Cl)c(Cl)c2)ccc(Cl)c1S(=O)(=O)O; -9.85
O=C(N/N=C/c1ccccc1O)C(O)(c1ccccc1)c1ccccc1; 8.52
Clc1nc(Cl)c2c(ncn2C/C=C\Cn2cnc3c(Cl)nc(Cl)nc32)n1; -98.9
NC(=S)N=Nc1c(O)c2ccccc2c2ccccc12; 29.9
Clc1ccc(/C=C2\CCCC3=C2N=C2SC=NN2C3c2ccc(Cl)cc2)cc1 (centres undefined); 112
Cc1nc2ccccc2c(N)c1-c1cc(C)c2c(C)nc3ccccc3c2n1; -96.6
CC(=O)C1CCC2C3CC(F)C4=CC(=O)CCC4(C)C3C(O)CC12C (centres undefined); 114
CCCCCCCCCCCCC1C/C=C\CCCC(=O)O1 (centres undefined); 107

### Prompt So what does the record say about growth for CCOCC(=O)C(C#N)c1ccc(Cl)c(Cl)c1 (centres undefined) ?
### Response 110

### Prompt So what does the record say about growth for "CC(=O)CSC(C)=O" ?
### Response 115

### Prompt So what does the record say about growth for "COc1ccc(-c2cc(/C=C3\C(=O)Nc4ccc(Cl)cc43)[nH]n2)cc1OC" ?
### Response 104

### Prompt So what does the record say about growth for "CSc1nc(=O)n(Cc2ccc(F)cc2)c(=O)n1Cc1ccc(C)cc1" ?
### Response 101

### Prompt So what does the record say about growth for "Clc1ccccc1N=Cc1ccc2c(c1)OCO2" ?
### Response 116

### Prompt So what does the record say about growth for "COc1cc(/C=N/NC(=O)c2ccccc2Nc2ccnc(C(F)(F)F)c2)ccc1O" ?
### Response 109

### Prompt So what does the record say about growth for "COc1ccc(NC(=O)Cc2nc3nc4sc(C)c(C)c4c(=O)n3[nH]2)cc1" ?
### Response 115

### Prompt So what does the record say about growth for O=C(NC(Cc1ccc(O)cc1)C(=O)N=Nc1c(O)[nH]c2ccccc12)c1ccccc1 (centres undefined) ?
### Response 103

---

Test system: RPMI-8226 leukemia
Method Summary: NCI-60 one-dose screen, 48 h (100 = growth as untreated, 0 = no growth, -100 = all killed)
Condition: 10 µM
Compounds without any hit were thinned out: in the full panel of roughly 83,000, 20% have a hit.
Could you mark each record T if its growth falls strictly under 20%, and F if it equals or exceeds it?

Solved cases below.
COc1cc(CNc2ccccc2C(=O)N2CCN(C(=O)c3cc(-c4cc(OC)c(OC)c(OC)c4)n4nc(-c5ccccc5)cc4n3)CC2)cc(OC)c1OC; F
O=S(=O)(NCCNc1nccc(-c2c(-c3ccc(F)cc3)nc3sccn23)n1)c1ccc2ccccc2c1; F
O=S(=O)(Nc1ccccn1)c1ccc(N=Nc2ccc(O)c3ncccc23)cc1; T
Cc1cc(C)c2c(n1)sc1c(Nc3ccc(Cl)cc3)ncnc12; F
COc1cc(Nc2ccnc(NCCCNc3ccnc4cc(Cl)ccc34)n2)cc(OC)c1; T

// switching to the query compound
### Prompt Strictly below 20% in growth? O=C1OCC2=C1C(c1cccc(Br)c1)c1cc3c(cc1N2CCO)CCC3 (stereo not given)
### Response T
